biological target: CDK3/Cyclin E1 (Homo sapiens, UniProt Q00526); assay: NanoBRET live-cell target engagement, CDK3-NanoLuc/Cyclin E1 in HEK-293; assay type: binding; settings: 10µM; independent experiment 1
Sequence (Q00526 whole entry): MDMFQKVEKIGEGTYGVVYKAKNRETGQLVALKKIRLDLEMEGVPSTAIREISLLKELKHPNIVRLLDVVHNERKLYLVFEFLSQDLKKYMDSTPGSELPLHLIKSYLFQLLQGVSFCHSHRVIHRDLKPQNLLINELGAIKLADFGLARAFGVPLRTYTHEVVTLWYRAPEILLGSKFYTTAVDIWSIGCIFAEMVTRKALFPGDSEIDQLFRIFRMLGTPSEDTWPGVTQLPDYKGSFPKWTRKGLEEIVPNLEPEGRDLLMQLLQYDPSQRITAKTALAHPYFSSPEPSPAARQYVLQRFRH
Sequence (P24864 whole entry partner): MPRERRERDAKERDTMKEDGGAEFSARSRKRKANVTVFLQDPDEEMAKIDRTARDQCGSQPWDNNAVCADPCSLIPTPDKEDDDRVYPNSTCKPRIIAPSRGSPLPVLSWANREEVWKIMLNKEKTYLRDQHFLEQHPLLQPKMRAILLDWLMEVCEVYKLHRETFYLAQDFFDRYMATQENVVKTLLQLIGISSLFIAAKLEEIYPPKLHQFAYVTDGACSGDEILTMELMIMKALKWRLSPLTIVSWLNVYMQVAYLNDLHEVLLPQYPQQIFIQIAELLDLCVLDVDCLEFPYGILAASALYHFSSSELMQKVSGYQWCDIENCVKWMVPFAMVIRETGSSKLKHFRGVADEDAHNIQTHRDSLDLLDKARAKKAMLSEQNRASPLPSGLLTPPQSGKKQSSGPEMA
measured_parameter: CDK3/E1 Inhibition at 10µM (%)
Remember to follow the number with its unit.

Example results:
{"columns": ["molecule", "measured_parameter", "result"],
 "data": [
  ["CN(C)C/C=C/C(=O)Nc1ccc(C(=O)Nc2cccc(Nc3ncc(Cl)c(-c4c[nH]c5ccccc45)n3)c2)cc1 [THZ1]", "CDK3/E1 Inhibition at 10µM (%)", "14.7%"],
  ["O=C1NCCc2[nH]c(-c3ccncc3)cc21 [PHA-767491]", "CDK3/E1 Inhibition at 10µM (%)", "30.4%"]
]}

List the reported CDK3/E1 Inhibition at 10µM (%) of each molecule below.
1. Cc1c(Br)c(Br)c2c3c1nc(N1CCNCC1)n3CCC2.Cl [SEL 120-34A]
2. O=C1NC(=NCc2cccs2)S/C1=C\c1ccc2ncccc2c1 [RO-3306]

["26.5%", "51.6%"]

###

Kindly supply the reported inhibition at 10 µM values for the records listed here.
molecular target: CDK8/Cyclin C (Homo sapiens, UniProt P49336); test: NanoBRET live-cell target engagement, NanoLuc-CDK8/Cyclin C in HEK-293; type: binding; details: CDK8/C; 10µM; read-out: Inhibition at 10µM (%) Replicate 1
Sequence (P49336 whole entry): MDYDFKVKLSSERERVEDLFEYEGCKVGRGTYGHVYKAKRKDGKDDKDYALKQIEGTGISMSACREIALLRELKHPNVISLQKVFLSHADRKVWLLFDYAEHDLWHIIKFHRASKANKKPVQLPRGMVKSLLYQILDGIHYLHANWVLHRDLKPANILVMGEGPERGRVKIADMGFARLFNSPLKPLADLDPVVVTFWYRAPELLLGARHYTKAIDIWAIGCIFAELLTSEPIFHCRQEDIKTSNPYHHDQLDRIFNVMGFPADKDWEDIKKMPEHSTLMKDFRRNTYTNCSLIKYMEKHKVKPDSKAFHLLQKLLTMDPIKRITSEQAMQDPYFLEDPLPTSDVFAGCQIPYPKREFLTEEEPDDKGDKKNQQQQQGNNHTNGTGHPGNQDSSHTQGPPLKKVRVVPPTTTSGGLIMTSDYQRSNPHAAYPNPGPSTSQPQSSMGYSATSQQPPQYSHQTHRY
Sequence (P24863 whole entry partner): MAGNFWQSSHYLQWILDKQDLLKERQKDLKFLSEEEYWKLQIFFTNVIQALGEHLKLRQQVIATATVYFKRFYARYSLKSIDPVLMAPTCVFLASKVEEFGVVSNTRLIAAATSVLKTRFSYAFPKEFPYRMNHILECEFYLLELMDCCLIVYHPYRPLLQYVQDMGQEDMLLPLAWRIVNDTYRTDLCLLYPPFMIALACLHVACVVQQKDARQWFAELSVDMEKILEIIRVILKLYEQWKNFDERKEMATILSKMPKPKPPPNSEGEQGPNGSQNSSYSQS
Answers are plain numbers, in %.

Example results:
{"columns": ["compound", "inhibition at 10 µM [%]"],
 "data": [
  ["CCN1CCN(Cc2ccc(Nc3ncc(F)c(-c4cc(F)c5nc(C)n(C(C)C)c5c4)n3)nc2)CC1", 27.2],
  ["CCN1CCN(Cc2ccc(NC(=O)Nc3ccc(Oc4cc(NC)ncn4)cc3)cc2C(F)(F)F)CC1", 95.7]
]}

List the reported inhibition at 10 µM of each compound below.
1. COc1cc(F)ccc1-c1ncnc(Nc2cccc(C[S@](C)(=N)=O)c2)n1
2. C[C@H]1CC[C@H](n2c3cnccc3c3cnc(Nc4ccc5c(n4)CCN(C(=O)CO)C5)nc32)CC1
3. CC(C)c1cnn2c(NCc3ccccc3)cc(NCCCCCCN)nc12

-1
13.8
2.3

List the reported inhibition at 10 µM of each compound below.
1. COc1cc(F)ccc1-c1cc(Nc2cc(CS(C)(=N)=O)ccn2)ncc1F (stereo not drawn)
2. O=C(NC1CCNCC1)c1[nH]ncc1NC(=O)c1c(Cl)cccc1Cl
3. Cc1ncc(-c2ccnc(Nc3ccc(S(C)(=O)=O)cc3)n2)n1C(C)C
4. CCCCOc1c(C(=O)c2c(F)cc(C)cc2F)c[nH]c2nncc1-2

[13.9, 34.8, 94.1, 97.6]

###

molecular target: CDK20/Cyclin H (Homo sapiens, UniProt Q8IZL9); experiment: NanoBRET live-cell target engagement, NanoLuc-CDK20/Cyclin H in HEK-293; format: binding; conditions: CDK20/H; 10µM; read-out: Inhibition at 10µM (%) Replicate 1
Sequence (Q8IZL9 whole entry): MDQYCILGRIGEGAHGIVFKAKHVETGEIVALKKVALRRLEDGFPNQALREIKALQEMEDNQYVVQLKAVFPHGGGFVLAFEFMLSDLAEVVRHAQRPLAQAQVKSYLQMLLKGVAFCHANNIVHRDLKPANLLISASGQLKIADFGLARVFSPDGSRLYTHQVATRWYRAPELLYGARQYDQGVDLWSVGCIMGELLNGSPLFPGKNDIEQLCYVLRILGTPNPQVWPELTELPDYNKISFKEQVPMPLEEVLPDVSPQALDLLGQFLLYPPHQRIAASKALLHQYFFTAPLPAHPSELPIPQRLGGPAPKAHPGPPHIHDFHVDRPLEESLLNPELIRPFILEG
Sequence (P51946 whole entry partner): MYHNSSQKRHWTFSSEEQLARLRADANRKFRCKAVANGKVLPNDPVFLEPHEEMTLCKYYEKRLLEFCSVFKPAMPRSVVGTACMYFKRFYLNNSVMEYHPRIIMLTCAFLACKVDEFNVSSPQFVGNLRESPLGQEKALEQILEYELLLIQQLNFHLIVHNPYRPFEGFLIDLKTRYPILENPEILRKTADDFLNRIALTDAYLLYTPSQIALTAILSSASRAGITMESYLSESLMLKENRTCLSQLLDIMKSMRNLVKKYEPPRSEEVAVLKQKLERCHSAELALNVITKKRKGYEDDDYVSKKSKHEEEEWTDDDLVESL
measured_parameter: inhibition at 10 µM (%)
One number for each entry, in %.

Example results:
{"columns": ["molecule", "number"],
 "data": [
  ["CCN1CCN(Cc2ccc(NC(=O)Nc3ccc(Oc4cc(NC)ncn4)cc3)cc2C(F)(F)F)CC1", 38.4],
  ["CCCCOc1c(C(=O)c2c(F)cc(C)cc2F)c[nH]c2nncc1-2", 14.5],
  ["CC(C)c1cnn2c(NCc3ccccc3)cc(NCCCCCCN)nc12", 18.7]
]}

List the reported inhibition at 10 µM of each molecule below.
1. Cc1ncc(-c2ccnc(Nc3ccc(S(C)(=O)=O)cc3)n2)n1C(C)C
2. O=C(NC1CCNCC1)c1[nH]ncc1NC(=O)c1c(Cl)cccc1Cl
3. CCN1CCN(Cc2ccc(Nc3ncc(F)c(-c4cc(F)c5nc(C)n(C(C)C)c5c4)n3)nc2)CC1
4. COc1cc(F)ccc1-c1cc(Nc2cc(CS(C)(=N)=O)ccn2)ncc1F (stereo not shown)

[22.8, 30, 8.8, 8.6]

###

Kindly supply the reported inhibition at 10 µM values for the records listed here.
target: CDK1/Cyclin E1 (Homo sapiens); test: NanoBRET live-cell target engagement, CDK1-NanoLuc/Cyclin E1 in HEK-293; type: binding; conditions: 10µM; average of experiments; read-out: CDK1/E1 Inhibition at 10µM (%)
Sequence (P06493 whole entry): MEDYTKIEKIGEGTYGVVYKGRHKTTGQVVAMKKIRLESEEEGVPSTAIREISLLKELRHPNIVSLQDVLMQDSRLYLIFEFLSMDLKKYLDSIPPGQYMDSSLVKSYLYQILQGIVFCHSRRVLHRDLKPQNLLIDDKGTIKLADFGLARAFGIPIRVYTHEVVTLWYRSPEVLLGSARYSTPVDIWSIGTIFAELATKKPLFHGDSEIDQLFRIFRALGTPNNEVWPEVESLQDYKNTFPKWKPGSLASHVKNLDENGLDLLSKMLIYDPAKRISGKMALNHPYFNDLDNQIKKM
Sequence (P24864 whole entry partner): as the sequence (P24864 whole entry partner) above
One number for each entry, in %.

{"columns": ["molecule", "measured_parameter", "number"],
 "data": [
  ["CC(C)[C@H](CO)Nc1nc(Nc2ccc(C(=O)O)c(Cl)c2)c2ncn(C(C)C)c2n1 [Purvalanol B]", "inhibition at 10 µM", 21.2],
  ["CC(C)CC(=O)Nc1[nH]nc2c1CN(C(=O)C1CCN(C)CC1)C2(C)C [PHA-793887]", "inhibition at 10 µM", 71.4],
  ["CN1CCN(c2ccc(Nc3ncc4cc5n(c4n3)C3(CCCCC3)CNC5=O)nc2)CC1 [Trilaciclib]", "inhibition at 10 µM", 8.6],
  ["CN1C/C=C/CCOc2cccc(c2)-c2ccnc(n2)Nc2cccc(c2)C1 [SB1317]", "inhibition at 10 µM", 95.4],
  ["CN(C)C/C=C/C(=O)Nc1ccc(C(=O)N2CCC[C@@H](Nc3ncc(Cl)c(-c4c[nH]c5ccccc45)n3)C2)cc1 [THZ531]", "inhibition at 10 µM", 61.4]
]}

Kindly consider the entry below.
Sample COCCN1CCN(Cc2ccc(-c3n[nH]c4c3C(=O)c3c(NC(=O)NN5CCOCC5)cccc3-4)cc2)CC1 [RGB286638] — what was its inhibition at 10 µM?
87.9

###

molecular target: CDK19/Cyclin C (Homo sapiens, UniProt Q9BWU1); test: NanoBRET live-cell target engagement, NanoLuc-CDK19/Cyclin C in HEK-293; settings: read-out: Inhibition at 10µM (%), CDK19/C; average
Sequence (Q9BWU1 whole entry): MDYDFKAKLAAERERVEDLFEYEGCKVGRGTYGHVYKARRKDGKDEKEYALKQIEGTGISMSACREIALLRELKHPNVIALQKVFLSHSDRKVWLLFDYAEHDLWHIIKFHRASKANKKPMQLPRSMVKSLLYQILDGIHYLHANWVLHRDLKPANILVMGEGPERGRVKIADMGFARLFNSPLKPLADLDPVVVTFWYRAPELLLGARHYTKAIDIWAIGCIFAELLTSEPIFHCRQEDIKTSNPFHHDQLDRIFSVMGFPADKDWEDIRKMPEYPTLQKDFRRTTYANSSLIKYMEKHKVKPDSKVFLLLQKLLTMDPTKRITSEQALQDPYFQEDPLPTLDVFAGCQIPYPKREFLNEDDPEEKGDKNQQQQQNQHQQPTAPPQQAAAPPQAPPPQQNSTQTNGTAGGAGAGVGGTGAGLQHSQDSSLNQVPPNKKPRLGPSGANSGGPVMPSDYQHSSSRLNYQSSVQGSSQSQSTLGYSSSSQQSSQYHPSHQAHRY
Sequence (P24863 whole entry partner): as the sequence (P24863 whole entry partner) above
Kindly supply the reported inhibition at 10 µM values for the records listed here.
One number for each entry, in %.

Example results:
{"columns": ["cpd_smiles", "tested_target", "measured_parameter", "number"],
 "data": [
  ["CNC(=O)c1nn(C)c2c1C(C)(C)Cc1cnc(Nc3ccc(N4CCN(C)CC4)cc3)nc1-2", "CDK19/Cyclin C (Homo sapiens, UniProt Q9BWU1)", "inhibition at 10 µM", 19.2],
  ["COC1CN(C(=O)c2ccc3c(N)ncc(-c4ccc(-c5cnn(C)c5)cc4)c3n2)C1", "CDK19/Cyclin C (Homo sapiens, UniProt Q9BWU1)", "inhibition at 10 µM", 92.3],
  ["CN1CC[C@H](c2c(O)cc(O)c3c(=O)cc(-c4ccccc4Cl)oc23)[C@H](O)C1", "CDK19/Cyclin C (Homo sapiens, UniProt Q9BWU1)", "inhibition at 10 µM", 95.8],
  ["CN1CCN(Cc2ccc(NC(=O)Nc3ccc(Oc4ccnc(N)n4)cc3)cc2C(F)(F)F)CC1", "CDK19/Cyclin C (Homo sapiens, UniProt Q9BWU1)", "inhibition at 10 µM", 96.4]
]}

List the reported inhibition at 10 µM of each compound below.
1. CCc1cnn2c(NCc3ccc[n+]([O-])c3)cc(N3CCCC[C@H]3CCO)nc12
2. CN1CCN(c2ccc(Nc3ncc4cc(C#N)c(=O)n(C5CCCC5)c4n3)cc2)CC1
3. N#CCNC(=O)c1ccc(-c2ccnc(Nc3ccc(N4CCOCC4)cc3)n2)cc1
4. Cn1cc(-c2ccc(-c3cncc(Cl)c3N3CCC4(CCNC4=O)CC3)cc2)cn1

1. 35.5
2. -0.3
3. 6.1
4. 94

###

Kindly supply the reported Inhibition at 10µM (%) Average values for the records listed here.
molecular target: CDK10/Cyclin L2 (Homo sapiens); test: NanoBRET live-cell target engagement, CDK10-NanoLuc/Cyclin L2 in HEK-293; details: CDK10/L2; 10µM; average of replicates
Sequence (Q15131 whole entry): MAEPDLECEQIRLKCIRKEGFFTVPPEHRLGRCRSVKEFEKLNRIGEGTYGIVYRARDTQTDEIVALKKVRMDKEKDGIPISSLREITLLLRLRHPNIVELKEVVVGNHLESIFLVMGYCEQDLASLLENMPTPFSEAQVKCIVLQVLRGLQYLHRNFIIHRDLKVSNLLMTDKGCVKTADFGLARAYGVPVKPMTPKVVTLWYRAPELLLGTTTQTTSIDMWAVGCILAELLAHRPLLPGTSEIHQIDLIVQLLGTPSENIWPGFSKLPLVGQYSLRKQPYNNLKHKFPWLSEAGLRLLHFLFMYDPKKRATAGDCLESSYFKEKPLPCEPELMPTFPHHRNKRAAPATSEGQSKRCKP
Give bare numbers, in %.

List the reported Inhibition at 10µM (%) Average of each molecule below.
1. CNC1CCN(C(=O)c2ccc(Nc3ncc(F)c(-c4cnc(C)n4C(C)C)n3)cc2)C1 (stereo not shown)
2. CCC(CO)Nc1nc(Nc2cccc(-c3ccccn3)c2)c2ncn(C(C)C)c2n1.Cl.O [(R) - DRF053]
3. O=C(Nc1c[nH]nc1-c1ccccn1)c1nn(C2CCNCC2)cc1Cl
4. CC(C)c1cnn2c(NCc3ccccc3)cc(N[C@@H](CO)[C@H](O)CO)nc12

86.5
20.2
5.4
25.6

###

target: CDK5/CDK5R1 (Homo sapiens); experiment: NanoBRET live-cell target engagement, CDK5-NanoLuc/CDK5R1 in HEK-293; assay type: binding; details: CDK5/CDK5R1; 10µM; read-out: Inhibition at 10µM (%) Replicate 1
Sequence (Q00535 whole entry): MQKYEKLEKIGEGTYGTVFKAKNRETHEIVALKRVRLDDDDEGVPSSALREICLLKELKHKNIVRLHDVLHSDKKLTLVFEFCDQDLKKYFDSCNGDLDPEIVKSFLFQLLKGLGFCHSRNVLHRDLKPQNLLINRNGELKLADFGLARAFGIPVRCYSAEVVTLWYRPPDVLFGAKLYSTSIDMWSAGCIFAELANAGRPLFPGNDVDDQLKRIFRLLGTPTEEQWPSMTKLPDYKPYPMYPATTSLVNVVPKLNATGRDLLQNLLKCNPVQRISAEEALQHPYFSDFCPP
Sequence (Q15078 whole entry partner): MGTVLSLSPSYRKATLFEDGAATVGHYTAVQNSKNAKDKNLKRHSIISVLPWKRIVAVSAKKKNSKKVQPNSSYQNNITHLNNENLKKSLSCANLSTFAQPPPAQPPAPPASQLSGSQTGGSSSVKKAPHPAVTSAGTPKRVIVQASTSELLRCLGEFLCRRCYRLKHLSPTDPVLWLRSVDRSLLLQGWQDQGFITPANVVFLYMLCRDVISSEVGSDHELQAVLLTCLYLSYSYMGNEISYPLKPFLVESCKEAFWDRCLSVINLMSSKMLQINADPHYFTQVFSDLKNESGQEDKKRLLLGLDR
Kindly supply the reported inhibition at 10 µM values for the records listed here.
One number for each entry, in %.

List the reported inhibition at 10 µM of each compound below.
1. COc1cc(F)ccc1-c1cc(Nc2cc(CS(C)(=N)=O)ccn2)ncc1F (stereo not shown)
2. COc1cc(F)ccc1-c1ncnc(Nc2cccc(C[S@](C)(=N)=O)c2)n1
3. CCN1CCN(Cc2ccc(NC(=O)Nc3ccc(Oc4cc(NC)ncn4)cc3)cc2C(F)(F)F)CC1
4. CCCCOc1c(C(=O)c2c(F)cc(C)cc2F)c[nH]c2nncc1-2

44.9
23.9
12.7
36.3

// data source = paper PMC7265341
